- Method: NCI Yeast Anticancer Drug Screen. Data for the mlh1 rad18 strain (AID 175)
- Assay conditions: S. cerevisiae mlh1 rad18 strain growth inhibition; at 50.0 µM; stronger effect = higher value
- Description: Growth inhibition of yeast strains with defined genetic alterations is measured as a screen for potential anti-cancer activity. Selected strains with alterations in DNA damage repair or cell cycle control were exposed to compounds and growth inhibition was measured relative to vehicle treated controls. The strain used in this assay is mlh1 rad18
The panel holds about 79,000 compounds, 15% with a hit somewhere; the sample as a whole holds those more often.
Measured growth inhibition values are reported for all entries that follow.
The answer is to be given in %; state only the numeric part.

These recorded examples may help you get a feel for the data.
Compound | Reading
COc1cc(C2c3cc4c(cc3C3OC(=O)C2C3CO)OCO4)cc(OC)c1OC (stereo not drawn) | -3.85
CCOC(=O)c1[nH]c(C)c(C(=O)O)c1C | -11.2
CC(=O)N(C)c1ccc([N+](=O)[O-])cc1 | 1.3
CC(=O)OCC1=CC2OC(=O)C3=COC(OC4OC(CO)C(O)C(O)C4O)C1C32 (stereo not drawn) | -51.6
O=C(O)c1ccc(S(=O)(=O)O)cc1 | 12.5

Q: May I ask what growth inhibition has been recorded for COS(=O)(=O)c1ccc(Br)cc1 ?
Result: -26.2

###

- Method: NCI Yeast Anticancer Drug Screen. Data for the rad50 strain (AID 155);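 further: 0% = growth of vehicle-only cultures of the same strain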
- Assay conditions: S. cerevisiae rad50 strain growth inhibition; at 50.0 µM; stronger effect = higher value
Compounds without any hit were thinned out: in the full panel of roughly 79,000, 15% have a hit.
Catalogue of growth inhibition readings, one per entry.
Dear colleague, please return just the value in %, with no unit written.

Field: example entries. Status: answers known.
Smi | Unit of measurement | growth inhibition
COc1cc(/C=C(\C#N)C(=O)c2ccccc2)ccc1OCc1ccccc1 | % | -1.1
COc1cc2c(cc1OC)[C@H](C(=O)O)[C@@H](c1ccc(OC(C)C)c(OC)c1)N(C)C2=O | % | 6.05
Nc1ccc(NC(=O)c2cccc(N)c2)cc1 | % | 15.2
COC(=O)c1ccc(NC(=O)CCl)cc1 | % | 44.8

Q: // query growth inhibition value for entry CCCCC1C(=O)N(c2ccccc2)N(c2ccccc2)C1=O
Result: -5.2

Q: // same read-out, input: CN(C)c1nc2c([nH]1)c(=O)n(C)c(=O)n2C
Result: 22.4

###

- Method: NCI Yeast Anticancer Drug Screen. Data for the cln2 rad14 strain (AID 165);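 further: 0% = growth equal to vehicle treated cultures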
- Assay conditions: S. cerevisiae cln2 rad14 strain, at 50.0 µM, stronger effect = higher value
This is part of a sample that, as a whole, favours compounds with a hit. Of some 79,000 tested, about 15% had one in any assay.
Please mark True if the recorded growth inhibition is equal to or greater than -20%, and False if it falls below.

Please review the entries below; each comes with its answer.
Compound | Qualitative label
CC(C)C(C#N)(C(C)C)C(C)C | False
O=C(O)CCCCNC(=O)c1ccccc1 | True
Clc1ccc(-c2n[nH]c3c2Cc2ccccc2-3)cc1Cl | True
O=S(=O)(O)c1ccc(Cl)c(Cl)c1 | True

Q: // inclusive: growth inhibition at least -20%? input: O=c1cc(-c2ccccc2)[nH]c(=S)[nH]1
Result: False

###

- Method: NCI Yeast Anticancer Drug Screen. Data for the mec2-1 strain (AID 157)
- Assay conditions: S. cerevisiae mec2-1 strain, at 50.0 µM, stronger effect = higher value
- Method: Growth inhibition of yeast strains with defined genetic alterations is measured as a screen for potential anti-cancer activity. Selected strains with alterations in DNA damage repair or cell cycle control were exposed to compounds and growth inhibition was measured relative to vehicle treated controls. The strain used in this assay is mec2-1
About 79,000 compounds went through this panel and 15% of them were active in at least one assay; those are over-represented in the sample as a whole.
Reported growth inhibition by item:
Just the number please, in %, no unit attached.

Compound | Unit of measurement | growth inhibition
O=S(=O)(O)c1ccc(O)c2ccccc12 | % | 19.4

Q: Suppose we examine the compound NCCC(=O)c1ccc(Cl)cc1 ; what growth inhibition value has been reported?
Result: -10.4

Q: And then Oc1ccc(O)cc1 , what is it?
Result: 15
